- assay summary: soluble fraction after stress (log2 fold change); higher = more stays soluble; pooled small domains, quantitative proteomics
- condition context: stress: pH 4
assay readout: soluble fraction (log2)
Returns: the value as a bare number; no unit string appended.

// known answers, use as guide
{"columns": ["seq text", "soluble fraction (log2)"],
 "data": [
  ["HMEPDEESVRLKEEILSRIDYWHTTMPYMGTRKLAAKLRTEGYAVGRKLVRTYMREMGIHAVYP", -0.293],
  ["HMNTSSVTVHYQDEAGKSLADTVTLTGKVGETYSSEQKKITGYNFKEVRGNPKGQFTTEAQTVTYVYTQAA", -0.195],
  ["HMQNVFARKNLTSVSVDKLGEEEILLFKQSFESKNLTSSEALRDLSKKGMSEAELRKLKVRLTQL", -0.177],
  ["HMSVGDLPPEAREIWKLLDGRELSLDLLAEETGRETGALLSTLMMLEMKLLVEHGSDMVYRRIPRR", -1.62]
]}

Turning now to a further sequence:
Could you tell me which soluble fraction (log2) is on file for HMNSLQLGSRGPTVSALQAKLNTMLVPSPRLVADGSFGPKTAQAVKAFQQMKRLVADGVVGPKTAAALGLS ?
0.281

###

- assay summary: soluble fraction after stress (log2 fold change); higher = more stays soluble; pooled small domains, quantitative proteomics
- condition context: stress: pH 4
assay readout: soluble fraction (log2)
// no unit string in output, number only

Examples with their reported soluble fraction (log2) follow.
{"columns": ["seq text", "soluble fraction (log2)"],
 "data": [
  ["HMQVSDVTTIRALVEEVLSSSPQQLAQYRAGKLSLKGYFVGQVMKKGKGQLNAAAVNNLLDEIL", 0.36],
  ["HMDYYKILGLSTSATLDQIKKAFRQLAIEFHPDKNPNNPTAEDKFQRISEAYAVLSNPEKRAEYDRSY", -0.17],
  ["HMQPAGEGAILRYLSSGAVKGIGPVMAREIVRRFGTDTFRVMEQEPEKLLKVKGITEQRLQTIMESYQD", 0.145],
  ["HMSDRLRLGRRIRAARLEQNLSQAALAERLGISASYLNLLEHDRRSLTTVLLLKLAQVLGLELRDLAAG", 0.0304],
  ["HMNEKTGTLTVYSSPGWAKVYIDGEYKGITPVMANLTYGDHYVKLTLDGYDSIGNHIDVNSPDQSYTGKF", 0.0783]
]}

Which soluble fraction (log2) reading was recorded for the sequence HMGSQQIEEGMRRLVASGALRPGASVPSVRDLARDLQVNPATVVRAYQRLVDAGLLVVRRGEGTFVAE ?
-0.103

Fill in the blank: the reported soluble fraction (log2) of HMSRIDRKGLTSQIVNHLSKNPGKNFTLKQFFRNLKLNTHPLKMLAVDVLNKLLDTNFITRNEDGEFFLKA is ____.
-0.123

Consider the sequence HMRIDVWLAENGFAPSRQKAQDLIAAGRVFQTDPSGRRQKVSKASAAVDPALSPKIEVIPDPE and give its measured soluble fraction (log2).
0.068

Any idea what soluble fraction (log2) was measured for HMKKTTEFAVTPEFQQRLEASPELKAAFQALTPGRQRAHLLFFAAPKQAQTRQARIEKSLPQIMAGKGLN ?
-0.0768

Given the entry HMGLWWTEAERELVKTTIEQLYKDTNIAEPVDSKNLRASIPALKAMRTGLSAENQARVDTLLGALQV , report its measured soluble fraction (log2).
-0.915

soluble fraction (log2) for HMHANSDVEQLMQMGIQRLNFQRYSDALLIFNQIIENFPDYAEAWNKRATLHYLLGNLDKSIADIEQTLE ?
-1.54

###

- assay summary: soluble fraction after stress (log2 fold change); higher = more stays soluble; pooled small domains, quantitative proteomics
- condition context: stress: pH 4
# reported soluble fraction (log2); entries follow

Answered cases to consult:
{"columns": ["seq text", "soluble fraction (log2)"],
 "data": [
  ["HMSRLMIVTPDGRIMDDVPEFGEVRTTTDVNGRVLVLDRNNVVIGFEMTPREYRREFGRNPF", 0.0337],
  ["HMNDLIFSTLAEYDRDTITEIISVVDNTRGIGYEVELVRKDLIAMAAQAEARRDYLPSVIGDVEVFKRNLL", -0.0414],
  ["HMKSLLDQINGIGAIRKRALLNHFGSARAVESASLDEIKSVEGVEAKVAKKIYNFFHEYKNMLR", 0.0807]
]}

// lookup soluble fraction (log2) for HMGQDLEAFLLKAVGQLDQGDGVTLDALLKVAVSNGGFVREVAEAKLDDMLDAGTLDEPRFGWFRVGAT
-1.68

Consider the sequence HMNLTSNDAYSRILNAIITSELRPGDTVTEIQLAQKFGFGRTPVREAIMRLENEGFIVSAERKKRVYIL and give its measured soluble fraction (log2).
-0.815

Need soluble fraction (log2) of HMKRISDEDLLVMRRIDEVHTYHPTWGYRTITRILRRDDHLLINPKKVRRIMRDMGIYTIYPK , thanks.
-0.41

I would be grateful if you could share the reported soluble fraction (log2) for HMIIDTELMTRVMKFGFSQADASDLVAQHSDDLLRTAISRVEARAESKGMTPLETPAGYFRWTLQDLVRNP .
-2.02

Tell me the measured soluble fraction (log2) of HMRYQIAEARKLRDITQAELAEKMGTTQQTIQRYETNQVNIRMDKMIEMSEILNVSLAYLLGMSSSPEL , please.
0.122

Quick one: soluble fraction (log2) for HMTTQERVSYSAFINDVETGRVAKVVISGYTIEGTRTNNSSFVTERPYGVDSNLSEVLMQNSVSIEGKA ?
-0.523

Recorded soluble fraction (log2) of HMVENMDEFIGRVRRLVSDRLDLLKEASDDEIRETISQVVLELSREQFLTLNEKKTVLEGVFNSMR , please.
-1.38

soluble fraction (log2) for HMSKYGIAYSEVLEILKHIPIEDYNKIPRNEIELFETYADKDFTFNYDSSKTLEEQNVSNITKGIIIL ?
-0.465

Please give the measured soluble fraction (log2) for this sequence: HMEDPAVYYKILQIPPDASLSEIHRAFEKITSAWDPERYPHISSWKETSAKKLQEIRNAYEKLLILRETG
-0.00219

What value of soluble fraction (log2) has been reported for the following sequence? HMGGKWKAIIIYHLKNGPKRFGELRRALISSTETVLSNQLKQLEQDGLVSRQVFGTKPPLKTVYSLTDFG
-0.906

Look up soluble fraction (log2): HMKRSFGSVRQLRSGNYQARYTGPDTVRHTSPVTYTSKMDAEAWLVDERRKISSGTWTPPAR
0.251

Param item = HMRDSYEVEGRIASVSPAAGTFVVAGVTVDYTGARFVGGTVAQLAPGVKVEVEGRRLANGTLQAREIEFD ; retrieve measured soluble fraction (log2).
-0.12

For HMNADRIVGQTAKVIHPITPDEKGRVMVDNLDWAAAAQNRGESFEVGEEVSIVRIEGVTVYVQK , what is its reported soluble fraction (log2)?
-0.57

// query soluble fraction (log2) value for entry HMRTVEQFQIRKIYAISNALGISDSRADEDELHVLVSGLTGKDSIKELTYREASVVIERLEELQ
-0.62

###

- assay summary: soluble fraction after stress (log2 fold change); higher = more stays soluble; pooled small domains, quantitative proteomics
- condition context: stress: pH 4
Let's look at some sequences and their measured soluble fraction (log2).
Answer with a bare number; do not write a unit.

Consider the sequence HMPHFGVVLQMDDWKTLRDRLEARDDIDWVMKPNLRFEGQPGEQATLFIRDPSGNALEFKGFADLSQVF and give its measured soluble fraction (log2).
-1.64

Report soluble fraction (log2) for HMLDTPLTARELDVLYLMRQRMSAKEIAKQLGIATMTVNRHAANLYRKLGVNTRWDAVYRAEEVGILPP please.
-0.592

Looking for the measured soluble fraction (log2) of HMDDVYMVPVKDIAINDLKQEFEKLGIPNIQNTIPDKDLNFFIVRKDDLALVNYAIEKTMER , can you help?
-0.523

What soluble fraction (log2) value was documented for this sequence, HMQQAVTMQKPGRLLRNADGNGGAVRDLDVGMMLYPTGNRSELMWEVDDELGNRGWVNSTLFGLS ?
-0.585

###

- assay summary: soluble fraction after stress (log2 fold change); higher = more stays soluble; pooled small domains, quantitative proteomics
- condition context: stress: pH 4
Returns the class for an entry based on its soluble fraction (log2). Class ranges: lo: < -0.6; med: ≥ -0.6 and < -0.007; hi: ≥ -0.007

{"columns": ["seq text", "group label"],
 "data": [
  ["HMLHVRSALMSELDGIEGIGEKRKRLLFDAFITRDAIAAATLEQLMAVKGMNRPSAEAVHKHFHG", "hi"],
  ["HMIKILGSAYRHGLDDDDILRAWNYHIQEFFEGEDPEKIVRLGFDTHGRLLEIGGEIYPGGGEKIFHAM", "lo"],
  ["HMRIYTKDEYLAELSRYLHKLPQDDYESAMAYFREYFEEAGPENEAQAMRDLGTPKEAASEILQNLLH", "med"]
]}

In plain terms, what class is HMDLSLQTFNELKTELTNNKITIDQFSEKINEFDITSDIFEISRELFLDDTLSLEDYLVVIENVLIN ?
lo

Returns: class label. Input: HMELEWENYSLAGEIKTTVMLYQNRRNGLPEEAKQKADALMKQLKQAVIENDAQKVEKIDDALTALLFE
med

Sort HMTDTDVLSSRLSALSSGRTSAVRLRDGVLSLVLDVGGLSIEARKAMTTAIESTARATPGVEAVRIAET into one of the categories.
hi

Sort HMDVSLVEQTQRDILEYISKNNSNAQLPKEQEFVGLLGVSRVVVREALSRLRALGIIETKRKKGTVVVVPE into one of the categories.
med

Band for HMKPSKTVYTTANLNLRNGASMSAAVYTSVSRGTALATTGRTTSGWTQITHRGRTLWASSKYLTTTTPP ?
hi

In plain terms, what class is HMWNKGETKIPTQAQNELIKRRQAGATWTSLSEWLKATYGIDIHRTNIQRWYDKEVYLDQEN ?
med

Looking at HMKIKLQATEQQRKTLDELYVQLKKLEPTSKEDLSLLYRLENPHLVSKQEAQGLISIAIGRVGSLAIEQQ , which class would you pick?
hi

Pick a category. Item: HMVSDISTQYQKIINEALDKQPEVKLADIVTMIKEQTSNKVQNGIVENVAKQMNGIEIIKIGQAKGVRRTT
hi

Lab note: which band did HMASVVEQVQVSNDISLFRQQNSPYWQARFKVAGKWYTRTTKRTEQTQAAFRAAELRSEVQTKISQGIPLR land in?
med

Which class holds HMVDQVDKDRFLEALTQLGGSAGNVRLRETLQWEEEVYVIIKDALVKSGTILTGRGRGGSVLLASA ?
lo

// bin(item) where item = HMWNPVLVVRGDFPKDLATTLLKMIFAQKEALNPHILFQNLLRTDNITFRESYPYHSASKTMFRF
med

Which soluble fraction (log2) band matches HMSNLKKRRLEKNLTLDDVGKLVGVSAATISRWESGDIENMRSDKIVKLANALEISPAVILGW ?
lo

Hey, which category is HMNSNLSLTSYEEKIFFLLEKEKNLDELILESSFKAGEILSILMDLEIKHAIVSIPGGKYRRK in, do you know?
lo

The origin of these recorded values is the domain aggregation screens of Martell et al. (2025).
